- System: a variety of test species
- experimental details: Pre-emergence herbicidal activity (Example 8a, Table 2)
- Assay type: in vivo
- Parameters: key: 0 = no damage to plant, 5 = total damage to plant
- cond: SETFA; application pre-emergence; rate 1000 g/ha; evaluated after 13 days
observation type: Pre-emergence herbicidal activity, damage score SETFA
// return just the number, without any unit appended

Worked examples, 4 compounds total:
>  <compound>
C=CCC(C)(C)c1cc(N2C(=O)C(Cl)=C(C)C2O)nn1C (stereo not shown)

>  <readout value>
5

$$$$
>  <compound>
CCn1nc(N2C(=O)C(Cl)=C(C)C2O)cc1C(F)(F)F (stereo not shown) [Compound C6]

>  <readout value>
4

$$$$
>  <compound>
CC1=C(Cl)C(=O)N(c2cc3n(n2)CCCC3(C)C)C1O (stereo not shown) [Compound G4]

>  <readout value>
5

$$$$
>  <compound>
CCC1CCCn2nc(N3C(=O)C(Cl)=C(C)C3O)cc21 (mixture of isomers) [Compound G7]

>  <readout value>
4

$$$$

Moving on to another compound below.
Please report Pre-emergence herbicidal activity, damage score SETFA for the following compound: CC1=C(Cl)C(=O)N(c2nn(C)c3c2CCCCC3(C)C)C1O (stereo not shown) 2

Data provenance is patent US9605004B2.
